Test system: Hepatitis C virus
procedure.details: Antiviral activity against HCV genotype 1b Con1 harboring HCV genotype 1a H77 NS3 D168A mutant infected in human HuH7 cells assessed as inhibition of viral replication after 96 hrs by luciferase reporter gene assay
Type: functional, cell-based, Hepacivirus hominis
measurement.conditions: genotype 1b Con1, Huh-7, 96 h
Measured pEC50 by item
Conceptually, pEC50 converts a concentration in mol/L into minus its log10.

Some compounds with known pEC50 results, for comparison:
| structure.notation | value |
| --- | --- |
| COc1ccc2nc(C)c(O[C@@H]3C[C@H]4C(=O)N[C@]5(C(=O)NS(=O)(=O)C6CC6)C[C@H]5/C=C\CCCCC[C@H](NC(=O)OC5CCCC5)C(=O)N4C3)nc2c1 | 8.58 |
| COc1ccc2nc(C(F)(F)F)c(O[C@@H]3C[C@H]4C(=O)N[C@]5(C(=O)NS(=O)(=O)C6CC6)C[C@H]5/C=C\CCCCC[C@H](NC(=O)OC(C)(C)C)C(=O)N4C3)nc2c1 | 7.77 |
| COc1ccc2nc(C(C)C)c(O[C@@H]3C[C@H]4C(=O)N[C@]5(C(=O)NS(=O)(=O)C6(C)CC6)C[C@H]5/C=C\CCCCC[C@H](NC(=O)OC5CCCC5)C(=O)N4C3)nc2c1 | 8.10 |

Record request: pEC50 value, item `COc1ccc2nc(C(F)(F)F)c(O[C@@H]3C[C@H]4C(=O)N[C@]5(C(=O)NS(=O)(=O)C6(C)CC6)C[C@H]5/C=C\CCCCC[C@H](NC(=O)OC5CCCC5)C(=O)N4C3)nc2c1` 8.07

Field entry: `CCc1nc2ccc(OC)cc2nc1O[C@@H]1C[C@H]2C(=O)N[C@]3(C(=O)NS(=O)(=O)C4(C)CC4)C[C@H]3/C=C\CCCCC[C@H](NC(=O)OC(C)(C)C)C(=O)N2C1` 8.30

Next compound up: `COc1ccc2nc(Cl)c(O[C@@H]3C[C@H]4C(=O)N[C@]5(C(=O)NS(=O)(=O)C6(C)CC6)C[C@H]5/C=C\CCCCC[C@H](NC(=O)OC5CCCC5)C(=O)N4C3)nc2c1` 9.01

Would you mind doing `CCc1nc2ccccc2nc1O[C@@H]1C[C@H]2C(=O)N[C@]3(C(=O)NS(=O)(=O)C4CC4)C[C@H]3/C=C\CCCCC[C@H](NC(=O)OC(C)(C)C)C(=O)N2C1` as well? 8.07

Could you do the same for `COc1ccc2nc(Cl)c(O[C@@H]3C[C@H]4C(=O)N[C@]5(C(=O)NS(=O)(=O)C6CC6)C[C@H]5/C=C\CCCCC[C@H](NC(=O)OC5CCCC5)C(=O)N4C3)nc2c1` , please? 8.88

Now try `CCc1nc2ccccc2nc1O[C@@H]1C[C@H]2C(=O)N[C@]3(C(=O)NS(=O)(=O)C4CC4)C[C@H]3/C=C\CCCCC[C@H](NC(=O)OC3CCCC3)C(=O)N2C1` . 8.12

Now this one: `COc1ccc2nc(Cl)c(O[C@@H]3C[C@H]4C(=O)N[C@]5(C(=O)NS(=O)(=O)C6(C)CC6)C[C@H]5/C=C\CCCCC[C@H](NC(=O)OC(C)(C)C)C(=O)N4C3)nc2c1` 8.97
